Data origin, for the record: patent US20210275503A1

Assay: Compound 67A pharmacokinetics in human subjects
Assay type: in vivo
Settings: in vivo; human subjects, 200 mg QD; median (min, max)
metricName: Tmax (h)
Reply with just the number (in h).

// query Please report Tmax for the following molecule: CC(C)OC(=O)Nc1ccc(-c2cnc([C@H]3CC[C@H](NC(=O)OC(C)C)CC3)s2)c(S(=O)(=O)NC(C)(C)C)c1 [Compound 67A]
// result 3.75

----------
Experiment: Compound 67A pharmacokinetics in human subjects
Format: in vivo
Details: in vivo; human subjects, 45 mg BID; AUC0-12; mean ± SD; n = 2
metricName: AUC(0-t) (ng·h/mL)
Reply with just the number (in ng·h/mL).

// query Please report AUC(0-t) for the following molecule: CC(C)OC(=O)Nc1ccc(-c2cnc([C@H]3CC[C@H](NC(=O)OC(C)C)CC3)s2)c(S(=O)(=O)NC(C)(C)C)c1 [Compound 67A]
// result 13500

----------
Assay: Compound 67A pharmacokinetics in human subjects
Assay type: in vivo
Settings: in vivo; human subjects, 45 mg BID; mean ± SD
metricName: Cmax (ng/mL)
Reply with just the number (in ng/mL).

// query Please report Cmax for the following compound: CC(C)OC(=O)Nc1ccc(-c2cnc([C@H]3CC[C@H](NC(=O)OC(C)C)CC3)s2)c(S(=O)(=O)NC(C)(C)C)c1 [Compound 67A]
// result 1430

----------
Test: Food effect pharmacokinetics, 90 mg QD, cycle 1 day 1
Format: in vivo, human
Details: human, in vivo, oral, 90 mg, Fed Patients (n = 3), 90 mg QD, cycle 1 day 1; median (min, max)
metricName: Tmax (h)
Reply with just the number (in h).

// query Please report Tmax for the following compound: CC(C)OC(=O)Nc1ccc(-c2cnc([C@H]3CC[C@H](NC(=O)OC(C)C)CC3)s2)c(S(=O)(=O)NC(C)(C)C)c1 [Compound 67A]
// result 8

----------
Assay: Food effect pharmacokinetics, 90 mg QD, cycle 1 day 1
Format: in vivo, human
Conditions: human, in vivo, oral, 90 mg, Fed Patients (n = 3), 90 mg QD, cycle 1 day 1; Mean ± SD; read-out: AUC0-24
metricName: AUC(0-t) (ng·h/mL)
Reply with just the number (in ng·h/mL).

// query Please report AUC(0-t) for the following compound: CC(C)OC(=O)Nc1ccc(-c2cnc([C@H]3CC[C@H](NC(=O)OC(C)C)CC3)s2)c(S(=O)(=O)NC(C)(C)C)c1 [Compound 67A]
// result 6430

----------
Test: Compound 67A pharmacokinetics in human subjects
Assay type: in vivo
Settings: in vivo; human subjects, 15 mg BID
metricName: Tmax (h)
Reply with just the number (in h).

// query Please report Tmax for the following molecule: CC(C)OC(=O)Nc1ccc(-c2cnc([C@H]3CC[C@H](NC(=O)OC(C)C)CC3)s2)c(S(=O)(=O)NC(C)(C)C)c1 [Compound 67A]
// result 2

----------
Assay: Food effect pharmacokinetics, 90 mg QD, cycle 1 day 1
Type: in vivo, human
Conditions: human, in vivo, oral, 90 mg, Fasted Patients (n = 3), 90 mg QD, cycle 1 day 1; Mean ± SD
metricName: Cmax (ng/mL)
Reply with just the number (in ng/mL).

// query Please report Cmax for the following compound: CC(C)OC(=O)Nc1ccc(-c2cnc([C@H]3CC[C@H](NC(=O)OC(C)C)CC3)s2)c(S(=O)(=O)NC(C)(C)C)c1 [Compound 67A]
// result 574

----------
Test: Compound 67A pharmacokinetics in human subjects
Format: in vivo
Conditions: in vivo; human subjects, 30 mg BID
Protocol: Compound 67A pharmacokinetics were analyzed in human subjects (Table 1, FIGS. 2A-2B)
metricName: Cmax

// query Please report Cmax for the following molecule: CC(C)OC(=O)Nc1ccc(-c2cnc([C@H]3CC[C@H](NC(=O)OC(C)C)CC3)s2)c(S(=O)(=O)NC(C)(C)C)c1 [Compound 67A]
// result 1210 ng/mL

----------
Assay: Compound 67A pharmacokinetics in human subjects
Format: in vivo
Settings: in vivo; human subjects, 30 mg BID
metricName: Tmax (h)
Reply with just the number (in h).

// query Please report Tmax for the following compound: CC(C)OC(=O)Nc1ccc(-c2cnc([C@H]3CC[C@H](NC(=O)OC(C)C)CC3)s2)c(S(=O)(=O)NC(C)(C)C)c1 [Compound 67A]
// result 2

----------
Test: Compound 67A pharmacokinetics in human subjects
Format: in vivo
Settings: in vivo; human subjects, 130 mg QD; AUC0-8; mean ± SD
metricName: AUC(0-t) (ng·h/mL)
Reply with just the number (in ng·h/mL).

// query Please report AUC(0-t) for the following compound: CC(C)OC(=O)Nc1ccc(-c2cnc([C@H]3CC[C@H](NC(=O)OC(C)C)CC3)s2)c(S(=O)(=O)NC(C)(C)C)c1 [Compound 67A]
// result 12800

----------
Assay: Compound 67A pharmacokinetics in human subjects
Format: in vivo
Conditions: in vivo; human subjects, 20 mg BID; AUC0-12
metricName: AUC(0-t) (ng·h/mL)
Reply with just the number (in ng·h/mL).

// query Please report AUC(0-t) for the following compound: CC(C)OC(=O)Nc1ccc(-c2cnc([C@H]3CC[C@H](NC(=O)OC(C)C)CC3)s2)c(S(=O)(=O)NC(C)(C)C)c1 [Compound 67A]
// result 5940
